Assay: Steady-state plasma concentrations of polymyxin B (total of B1, B2, B1-Ile) by LC-MS/MS
Format: in vivo
Conditions: human, iv, 50 mg, patient ID 18, TIME 62.5, DOSE 50 at 0, 12, 24, 36, 48, 60, DUR 2, WT 80, CCR 169.94, ALB 41.5, APACHE 29, single measurement, read-out: OUT (observed polymyxin B plasma concentration)
Positions of bridges follow the written chain, without caps; N, C: chain ends. Non-standard residues stand in square brackets, D forms with d. Residues, ends and D or L forms follow the SMILES beside them. *: point of attachment. X1 = CC[C@H](C)CCCCC(=O)*; Dab = NCC[C@H](N)C(=O)O
QUANTITY_MEASURED: level at 62.5 h (ng/mL)
Give bare numbers, in ng/mL.

Short answer for CC[C@H](C)CCCCC(=O)N[C@@H](CCN)C(=O)N[C@H](C(=O)N[C@@H](CCN)C(=O)N[C@H]1CCNC(=O)[C@H]([C@@H](C)O)NC(=O)[C@H](CCN)NC(=O)[C@H](CCN)NC(=O)[C@H](CC(C)C)NC(=O)[C@@H](Cc2ccccc2)NC(=O)[C@H](CCN)NC1=O)[C@@H](C)O [polymyxin B] (X1-[Dab]T[Dab][Dab][Dab][dF]L[Dab][Dab]T; lactam 4-C) : level at 62.5 h was 4860

====

Experiment: Steady-state plasma concentrations of polymyxin B (total of B1, B2, B1-Ile) by LC-MS/MS
Assay type: in vivo
Conditions: human, iv, patient ID 13, TIME 150, DOSE 75 at 0 then 50 every 12 from 12 (ADDL 12), DUR 1, WT 57, CCR 41.39, ALB 24.4, APACHE 18, single measurement, read-out: OUT (observed polymyxin B plasma concentration)
Text: We gather data from critically ill patients (≥18 years old) who were given intravenous drip polymyxin B treatment with blood concentration monitoring at the hospital from November 2021 to September 2022. […] According to previous studies, total polymyxin B1, polymyxin B2, and polymyxin B1-Ile concentrations in human blood plasma were quantified using LC-MS/MS ([Meng et al., 2016]; [Hee et al., 2017]). […]
Positions of bridges follow the written chain, without caps; N, C: chain ends. Non-standard residues stand in square brackets, D forms with d. Residues, ends and D or L forms follow the SMILES beside them. *: point of attachment. X1 = CC[C@H](C)CCCCC(=O)*; Dab = NCC[C@H](N)C(=O)O
QUANTITY_MEASURED: level at 150 h

GET /value?item= CC[C@H](C)CCCCC(=O)N[C@@H](CCN)C(=O)N[C@H](C(=O)N[C@@H](CCN)C(=O)N[C@H]1CCNC(=O)[C@H]([C@@H](C)O)NC(=O)[C@H](CCN)NC(=O)[C@H](CCN)NC(=O)[C@H](CC(C)C)NC(=O)[C@@H](Cc2ccccc2)NC(=O)[C@H](CCN)NC1=O)[C@@H](C)O [polymyxin B] (X1-[Dab]T[Dab][Dab][Dab][dF]L[Dab][Dab]T; lactam 4-C) &field=level at 150 h returns 1830 ng/mL

====

Assay: Steady-state plasma concentrations of polymyxin B (total of B1, B2, B1-Ile) by LC-MS/MS
Type: in vivo
Settings: human, iv, patient ID 3, TIME 325, DOSE 100 at 0 then 50 from 12, ADDL 27, II 12, DUR 1, WT 57, CCR 61.5, ALB 33.8, APACHE 21, single sample, read-out: OUT (observed polymyxin B plasma concentration)
Positions of bridges follow the written chain, without caps; N, C: chain ends. Non-standard residues stand in square brackets, D forms with d. Residues, ends and D or L forms follow the SMILES beside them. *: point of attachment. X1 = CC[C@H](C)CCCCC(=O)*; Dab = NCC[C@H](N)C(=O)O
QUANTITY_MEASURED: level at 325 h (ng/mL)
Answers are plain numbers, in ng/mL.

The recorded level at 325 h for CC[C@H](C)CCCCC(=O)N[C@@H](CCN)C(=O)N[C@H](C(=O)N[C@@H](CCN)C(=O)N[C@H]1CCNC(=O)[C@H]([C@@H](C)O)NC(=O)[C@H](CCN)NC(=O)[C@H](CCN)NC(=O)[C@H](CC(C)C)NC(=O)[C@@H](Cc2ccccc2)NC(=O)[C@H](CCN)NC1=O)[C@@H](C)O [polymyxin B] (X1-[Dab]T[Dab][Dab][Dab][dF]L[Dab][Dab]T; lactam 4-C) is 6600

====

Test: Steady-state plasma concentrations of polymyxin B (total of B1, B2, B1-Ile) by LC-MS/MS
Format: in vivo
Conditions: human, iv, patient ID 19, TIME 54.67, DOSE 100 at 0 then 50 every 12 from 12 (ADDL 3), DUR 1, WT 60, CCR 35.69, ALB 25.6, APACHE 19, single measurement, read-out: OUT (observed polymyxin B plasma concentration)
Positions of bridges follow the written chain, without caps; N, C: chain ends. Non-standard residues stand in square brackets, D forms with d. Residues, ends and D or L forms follow the SMILES beside them. *: point of attachment. X1 = CC[C@H](C)CCCCC(=O)*; Dab = NCC[C@H](N)C(=O)O
QUANTITY_MEASURED: level at 54.67 h (ng/mL)
Give bare numbers, in ng/mL.

# molecule CC[C@H](C)CCCCC(=O)N[C@@H](CCN)C(=O)N[C@H](C(=O)N[C@@H](CCN)C(=O)N[C@H]1CCNC(=O)[C@H]([C@@H](C)O)NC(=O)[C@H](CCN)NC(=O)[C@H](CCN)NC(=O)[C@H](CC(C)C)NC(=O)[C@@H](Cc2ccccc2)NC(=O)[C@H](CCN)NC1=O)[C@@H](C)O [polymyxin B] (X1-[Dab]T[Dab][Dab][Dab][dF]L[Dab][Dab]T; lactam 4-C) ; its level at 54.67 h = 1860

====

Test: Steady-state plasma concentrations of polymyxin B (total of B1, B2, B1-Ile) by LC-MS/MS
Format: in vivo
Details: human, iv, 50 mg, patient ID 7, TIME 301, DOSE 50 from 0, ADDL 25, II 12, DUR 1, WT 52, CCR 121.16, ALB 32.1, APACHE 21, single sample, read-out: OUT (observed polymyxin B plasma concentration)
Positions of bridges follow the written chain, without caps; N, C: chain ends. Non-standard residues stand in square brackets, D forms with d. Residues, ends and D or L forms follow the SMILES beside them. *: point of attachment. X1 = CC[C@H](C)CCCCC(=O)*; Dab = NCC[C@H](N)C(=O)O
QUANTITY_MEASURED: level at 301 h (ng/mL)
Numbers only, in ng/mL.

Entry under test: CC[C@H](C)CCCCC(=O)N[C@@H](CCN)C(=O)N[C@H](C(=O)N[C@@H](CCN)C(=O)N[C@H]1CCNC(=O)[C@H]([C@@H](C)O)NC(=O)[C@H](CCN)NC(=O)[C@H](CCN)NC(=O)[C@H](CC(C)C)NC(=O)[C@@H](Cc2ccccc2)NC(=O)[C@H](CCN)NC1=O)[C@@H](C)O [polymyxin B] (X1-[Dab]T[Dab][Dab][Dab][dF]L[Dab][Dab]T; lactam 4-C) . Its level at 301 h was 7720

====

Assay: Steady-state plasma concentrations of polymyxin B (total of B1, B2, B1-Ile) by LC-MS/MS
Assay type: in vivo
Conditions: human, iv, patient ID 20, TIME 77.45, DOSE 100 at 0 then 50 every 12 from 12 (ADDL 6), DUR 1.45, WT 75, CCR 84.86, ALB 29.5, APACHE 18, single measurement, read-out: OUT (observed polymyxin B plasma concentration)
Positions of bridges follow the written chain, without caps; N, C: chain ends. Non-standard residues stand in square brackets, D forms with d. Residues, ends and D or L forms follow the SMILES beside them. *: point of attachment. X1 = CC[C@H](C)CCCCC(=O)*; Dab = NCC[C@H](N)C(=O)O
QUANTITY_MEASURED: level at 77.45 h (ng/mL)
Give bare numbers, in ng/mL.

Looking up CC[C@H](C)CCCCC(=O)N[C@@H](CCN)C(=O)N[C@H](C(=O)N[C@@H](CCN)C(=O)N[C@H]1CCNC(=O)[C@H]([C@@H](C)O)NC(=O)[C@H](CCN)NC(=O)[C@H](CCN)NC(=O)[C@H](CC(C)C)NC(=O)[C@@H](Cc2ccccc2)NC(=O)[C@H](CCN)NC1=O)[C@@H](C)O [polymyxin B] (X1-[Dab]T[Dab][Dab][Dab][dF]L[Dab][Dab]T; lactam 4-C) , I found its level at 77.45 h recorded as 2700

====

Assay: Steady-state plasma concentrations of polymyxin B (total of B1, B2, B1-Ile) by LC-MS/MS
Format: in vivo
Conditions: human, iv, patient ID 4, TIME 64.5, DOSE 100 at 0 then 50 every 12 to 60, DUR 1, WT 58, CCR 61.95, ALB 25.5, APACHE 28, single sample, read-out: OUT (observed polymyxin B plasma concentration)
Positions of bridges follow the written chain, without caps; N, C: chain ends. Non-standard residues stand in square brackets, D forms with d. Residues, ends and D or L forms follow the SMILES beside them. *: point of attachment. X1 = CC[C@H](C)CCCCC(=O)*; Dab = NCC[C@H](N)C(=O)O
QUANTITY_MEASURED: level at 64.5 h (ng/mL)
Numbers only, in ng/mL.

Lab book: level at 64.5 h of CC[C@H](C)CCCCC(=O)N[C@@H](CCN)C(=O)N[C@H](C(=O)N[C@@H](CCN)C(=O)N[C@H]1CCNC(=O)[C@H]([C@@H](C)O)NC(=O)[C@H](CCN)NC(=O)[C@H](CCN)NC(=O)[C@H](CC(C)C)NC(=O)[C@@H](Cc2ccccc2)NC(=O)[C@H](CCN)NC1=O)[C@@H](C)O [polymyxin B] (X1-[Dab]T[Dab][Dab][Dab][dF]L[Dab][Dab]T; lactam 4-C) noted as 2330
